- System: Hep G 2.2.15 cells
- Experiment: in vitro
- Assay type: cell-based
- Assay conditions: MTT, day 3 post-dosing
Measurement type: CC50

{"columns": ["Compound", "Measurement type", "Obs value"],
 "data": [
  ["CC(C)OC(=O)[C@H](C)N[P@](=O)(CO[C@H](C)Cn1cnc2c(N)ncnc21)Oc1ccccc1.O=C(O)/C=C/C(=O)O [GS-7340, reference compound]", "CC50", "94.2 µM"],
  ["COC(=O)C(C)NP(=O)(OCCOCn1cnc2c(=O)[nH]c(N)nc21)Oc1ccc2c(c1)OCO2 (stereo not shown)", "CC50", "> 200 µM"],
  ["CC(NP(=O)(OCCOCn1cnc2c(=O)[nH]c(N)nc21)Oc1ccc2c(c1)OCO2)C(=O)OC1CCCCC1 (stereo not shown)", "CC50", "> 200 µM"],
  ["CC(C)OC(=O)C(C)NP(=O)(OCCOCn1cnc2c(=O)[nH]c(N)nc21)Oc1ccc2c(c1)OCO2 (stereo not shown)", "CC50", "> 200 µM"]
]}
